# assay.overview: qHTS assay to test for compound auto fluorescence at 590 nm (red) in HepG2 cells (AID 720674); further: on the % scale 0 is the no-effect control and ±100 the full control effect
# cond: HepG2 autofluorescence, red 540/590 nm, 1 h; series mostly up to 91.3 µM
The source made the active and inactive calls. The call rests on the fitted dose curve; in most records, active means well fitted curve in the direction sought with a large enough effect in the repeat runs; inconclusive means weak or mixed curves; inactive means flat fitted curve, though single readings scatter.
property.name: fluorescence, relative to Rose Bengal

Example results:
compound	fluorescence, relative to Rose Bengal
O=C(O)CNC(=O)c1ccccc1I	inactive
CC(=O)OCC(C)C	inactive
CCCCCCCCCCCCCOC(=O)CCSCCC(=O)OCCCCCCCCCCCCC	0.06% [at 18.6 µM] (inactive)
CSCC[C@H](NC(=O)[C@H](Cc1c[nH]c2ccccc12)NC(=O)CCNC(=O)OC(C)(C)C)C(=O)N[C@@H](CC(=O)O)C(=O)N[C@@H](Cc1ccccc1)C(N)=O	inactive
CC1C(C)(C)C2=C(C(=O)CCC2)C1(C)C (configuration not stated)	inactive
CCC(Cl)CC(Cl)C(Cl)C(Cl)C(Cl)C(C)Cl (configuration not stated)	0.266% [at 13.4 µM] (inactive)
O=C(O)CCC(=O)OC[C@@H](NC(=O)C(Cl)Cl)[C@H](O)c1ccc([N+](=O)[O-])cc1	inactive
COC(=O)CC(C(C)=O)C(=O)OC (configuration not stated)	inactive

-- ask Field request: fluorescence, relative to Rose Bengal | item: O=C(Nc1ccc(C(=O)O)c(O)c1)c1ccccc1
-- reply inactive

-- ask Can you handle c1ccc2sc(SSc3nc4ccccc4s3)nc2c1 next?
-- reply inactive

-- ask Can you handle CNC1CCCN(c2c(F)cc3c(=O)c(C(=O)O)cn(C4CC4)c3c2OC)C1 (configuration not stated) next?
-- reply inactive

-- ask Can you handle C=CCOC(=O)COCCC(C)C next?
-- reply inactive
